# condition.summary: in methanol, 310.65 K
readout: solubility (mole fraction)

Exam item: Item "Cc1cnc(N)s1" has what recorded solubility (mole fraction)?
Marked response: 0.157

* * *

# condition.summary: in 2-butanone, 295.65 K
readout: solubility (mole fraction)

Exam item: Item "Cc1cnc(N)s1" has what recorded solubility (mole fraction)?
Marked response: 0.0705

* * *

# condition.summary: in toluene, 293.15 K
readout: solubility (mole fraction)
Just the number, please.

Exam item: Item "Cc1cnc(N)s1" has what recorded solubility (mole fraction)?
Marked response: 0.0205

* * *

# condition.summary: in ethyl acetate, 283.15 K
readout: solubility (mole fraction)
Just the number, please.

Exam item: Item "Cc1cnc(N)s1" has what recorded solubility (mole fraction)?
Marked response: 0.0614

* * *

# condition.summary: in ethanol, 285.65 K
readout: solubility (mole fraction)
Just the number, please.

Exam item: Item "Cc1cnc(N)s1" has what recorded solubility (mole fraction)?
Marked response: 0.0629

* * *

# condition.summary: in 1,4-dioxane, 313.15 K
readout: solubility (mole fraction)
Just the number, please.

Exam item: Item "Cc1cnc(N)s1" has what recorded solubility (mole fraction)?
Marked response: 0.138

* * *

# condition.summary: in toluene, 280.65 K
readout: solubility (mole fraction)
Just the number, please.

Exam item: Item "Cc1cnc(N)s1" has what recorded solubility (mole fraction)?
Marked response: 0.0121

* * *

# condition.summary: in acetone, 310.65 K
readout: solubility (mole fraction)
Just the number, please.

Exam item: Item "Cc1cnc(N)s1" has what recorded solubility (mole fraction)?
Marked response: 0.15

* * *

# condition.summary: in 2-butanone, 308.15 K
readout: solubility (mole fraction)
Just the number, please.

Exam item: Item "Cc1cnc(N)s1" has what recorded solubility (mole fraction)?
Marked response: 0.111

* * *

# condition.summary: in 1,4-dioxane, 295.65 K
readout: solubility (mole fraction)

Exam item: Item "Cc1cnc(N)s1" has what recorded solubility (mole fraction)?
Marked response: 0.0737

* * *

# condition.summary: in 2-butanone, 280.65 K
readout: solubility (mole fraction)
Just the number, please.

Exam item: Item "Cc1cnc(N)s1" has what recorded solubility (mole fraction)?
Marked response: 0.0405

* * *

# condition.summary: in acetonitrile, 293.15 K
readout: solubility (mole fraction)
Just the number, please.

Exam item: Item "Cc1cnc(N)s1" has what recorded solubility (mole fraction)?
Marked response: 0.0489

* * *

# condition.summary: in acetone, 300.65 K
readout: solubility (mole fraction)
Just the number, please.

Exam item: Item "Cc1cnc(N)s1" has what recorded solubility (mole fraction)?
Marked response: 0.107

* * *

# condition.summary: in 2-butanone, 285.65 K
readout: solubility (mole fraction)
Just the number, please.

Exam item: Item "Cc1cnc(N)s1" has what recorded solubility (mole fraction)?
Marked response: 0.049

* * *

# condition.summary: in 2-butanone, 283.15 K
readout: solubility (mole fraction)

Exam item: Item "Cc1cnc(N)s1" has what recorded solubility (mole fraction)?
Marked response: 0.0448

* * *

# condition.summary: in ethyl acetate, 295.65 K
readout: solubility (mole fraction)
Just the number, please.

Exam item: Item "Cc1cnc(N)s1" has what recorded solubility (mole fraction)?
Marked response: 0.0934

* * *

# condition.summary: in 2-butanone, 290.65 K
readout: solubility (mole fraction)
Just the number, please.

Exam item: Item "Cc1cnc(N)s1" has what recorded solubility (mole fraction)?
Marked response: 0.0585

* * *

# condition.summary: in 2-butanone, 293.15 K
readout: solubility (mole fraction)
Just the number, please.

Exam item: Item "Cc1cnc(N)s1" has what recorded solubility (mole fraction)?
Marked response: 0.064

* * *

# condition.summary: in ethyl acetate, 278.15 K
readout: solubility (mole fraction)
Just the number, please.

Exam item: Item "Cc1cnc(N)s1" has what recorded solubility (mole fraction)?
Marked response: 0.0523

* * *

# condition.summary: in acetone, 285.65 K
readout: solubility (mole fraction)
Just the number, please.

Exam item: Item "Cc1cnc(N)s1" has what recorded solubility (mole fraction)?
Marked response: 0.0637

* * *

# condition.summary: in cyclohexane, 288.15 K
readout: solubility (mole fraction)
Just the number, please.

Exam item: Item "Cc1cnc(N)s1" has what recorded solubility (mole fraction)?
Marked response: 0.000566

* * *

# condition.summary: in 1,4-dioxane, 310.65 K
readout: solubility (mole fraction)
Just the number, please.

Exam item: Item "Cc1cnc(N)s1" has what recorded solubility (mole fraction)?
Marked response: 0.126

* * *

# condition.summary: in acetonitrile, 310.65 K
readout: solubility (mole fraction)
Just the number, please.

Exam item: Item "Cc1cnc(N)s1" has what recorded solubility (mole fraction)?
Marked response: 0.0921

* * *

# condition.summary: in isopropanol, 280.65 K
readout: solubility (mole fraction)
Just the number, please.

Exam item: Item "Cc1cnc(N)s1" has what recorded solubility (mole fraction)?
Marked response: 0.0381

* * *

# condition.summary: in ethyl acetate, 310.65 K
readout: solubility (mole fraction)
Just the number, please.

Exam item: Item "Cc1cnc(N)s1" has what recorded solubility (mole fraction)?
Marked response: 0.152

* * *

# condition.summary: in methanol, 283.15 K
readout: solubility (mole fraction)
Just the number, please.

Exam item: Item "Cc1cnc(N)s1" has what recorded solubility (mole fraction)?
Marked response: 0.0686

* * *

# condition.summary: in 2-butanone, 303.15 K
readout: solubility (mole fraction)
Just the number, please.

Exam item: Item "Cc1cnc(N)s1" has what recorded solubility (mole fraction)?
Marked response: 0.093

* * *

# condition.summary: in n-propanol, 313.15 K
readout: solubility (mole fraction)
Just the number, please.

Exam item: Item "Cc1cnc(N)s1" has what recorded solubility (mole fraction)?
Marked response: 0.128

* * *

# condition.summary: in ethyl acetate, 303.15 K
readout: solubility (mole fraction)

Exam item: Item "Cc1cnc(N)s1" has what recorded solubility (mole fraction)?
Marked response: 0.118

* * *

# condition.summary: in ethanol, 295.65 K
readout: solubility (mole fraction)
Just the number, please.

Exam item: Item "Cc1cnc(N)s1" has what recorded solubility (mole fraction)?
Marked response: 0.0869

* * *

# condition.summary: in toluene, 298.15 K
readout: solubility (mole fraction)
Just the number, please.

Exam item: Item "Cc1cnc(N)s1" has what recorded solubility (mole fraction)?
Marked response: 0.0251

* * *

# condition.summary: in acetonitrile, 303.15 K
readout: solubility (mole fraction)
Just the number, please.

Exam item: Item "Cc1cnc(N)s1" has what recorded solubility (mole fraction)?
Marked response: 0.0699

* * *

# condition.summary: in toluene, 310.65 K
readout: solubility (mole fraction)
Just the number, please.

Exam item: Item "Cc1cnc(N)s1" has what recorded solubility (mole fraction)?
Marked response: 0.0438

The origin of these recorded values is BigSolDB 2.1.
